# TEST_NAME: Confirmation and Secondary Assay for Modulators of Hemoglobin Beta Chain Splicing at IVS2 654 locus (AID 910);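 also: HeLa cells stably carrying EGFP split by mutant beta-globin IVS2-654 intron; per-well total GFP intensity by laser scanning cytometry after 2-day treatment; % of control where 0% means no effect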
# COND: HeLa EGFP-654 splicing reporter, GFP fluorescence, 48 h; series mostly up to 46.1 µM
Activity calls are given as the source filed them. Calls follow the shape of the dose curve; as a rule, active = well fitted activation curve with a large enough effect; inconclusive = small, poorly fitted or top-dose-only effect; inactive = flat fitted curve, though single readings scatter.
RECORDED_METRIC: outcome

Some compounds with known outcome results, for comparison:
* O=c1[nH]c(Cl)nc2c1ncn2C1OC(CO)C(O)C1O (stereo not drawn) | inactive
* Cc1onc(-c2ccccc2)c1C(=O)NC1C(=O)N2C(C(=O)O)C(C)(C)S[C@@H]12 (stereo partly drawn) | inactive
* CC1(C)OC2CO[C@]3(COS(N)(=O)=O)OC(C)(C)OC3C2O1 (stereo partly drawn) | inactive
* NCC1CCCCC1CC(=O)O (stereo not drawn) | inactive

Look up outcome for the entries below, preserving their order.
1. CC1(C)CC23C(=O)CCC(O)C2(C)CCC13 (stereo not drawn)
2. C=C[C@](C)(O)CCC1C(=C)CCC2[C@@](C)(CO)CCC[C@@]12C (stereo partly drawn)
3. CO[C@]12CC(COC(=O)c3cncc(Br)c3)CN(C)[C@@H]1Cc1cn(C)c3cccc2c13 (stereo partly drawn)
4. CC1(C)OC2CC3C4CCC5=CC(=O)C=C[C@@]5(C)[C@]4(F)C(O)C[C@@]3(C)[C@]2(C(=O)CO)O1 (stereo partly drawn)
5. O=C(/C=C/c1ccccc1)c1ccc(O)cc1

["inactive", "inactive", "inactive", "inactive", "inactive"]

For each of the items listed, what is its outcome?
1. CC(=O)NC1C(O)C[C@@](O)(C(=O)O)OC1[C@@H](O)C(O)CO (stereo partly drawn)
2. CC1=CC(=O)C2C(C)(C)CCC[C@@]2(C)[C@@]1(O)CCc1ccoc1 (stereo partly drawn)

["inactive", "inactive"]

Please state, for each entry, its recorded outcome.
1. CCOC(=O)OC(C)OC(=O)C1N2C(=O)C(NC(=O)C(N)c3ccccc3)C2SC1(C)C (stereo not drawn)
2. C=CCCCCCCCCCCCC(O)CC(O)CO (stereo not drawn) (tested in a mixture with another compound)
3. CC1CCC(C(C)C)C(=O)C1 (stereo not drawn)
4. O=c1cc(-c2ccc(O)c(O)c2)oc2ccccc12
5. NC1=NCCN1CC(=O)O
6. Nc1nc2c([nH]c(=O)n2C2OC(CO)C(O)C2O)c(=O)[nH]1 (stereo not drawn)
7. CC(CCC(=O)O)C1CCC2C3CC[C@H]4CC(O)CC[C@@]4(C)C3CC(O)[C@]12C (stereo partly drawn)
8. O=C(O)c1cc2cc(Cl)ccc2[nH]1

1. inactive
2. inactive
3. inactive
4. inactive
5. inactive
6. inactive
7. inactive
8. inactive

----------
Please respond with reported activity change, negative = inhibition for every item in the list.
# TEST_NAME: qHTS Assay for Lipid Storage Modulators (AID 1519); also: % is scaled to controls: 0 for no effect and ±100 for the full control effect
# COND: Drosophila S3 cells, BODIPY lipid droplet/cell ratio, laser cytometry; at 57.5 µM (top of the series); cells loaded with oleic acid
Records with an inconclusive call do not appear.
Give bare numbers, in %.

Solved cases (5 shown):
* NC(CSCSCC(N)C(=O)O)C(=O)O (configuration not stated) | 1.54
* COC1OC(CO)C(OC2OC(C(=O)O)C(OC3OC(COS(=O)(=O)O)C(OC4OC(C(=O)O)C(OC5OC(CO)C(OC6OC(C(=O)O)C(OC7OC(COS(=O)(=O)O)C(OC8OC(C(=O)O)=C[C@H](O)C8OS(=O)(=O)O)C(O)C7NC(C)=O)[C@@H](O)C6O)C(O)C5NC(C)=O)[C@@H](O)C4O)C(O)C3NC(C)=O)[C@@H](O)C2O)C(O)C1NC(C)=O (some centres not stated) | 0.455
* COc1ccc(-c2c(O)c3c(OC)c4c(cc3oc2=O)OC(C)(C)C=C4)cc1 | -13.4
* O=C(CC(=O)c1ccccc1)c1ccccc1 | 2.34
* CC[C@H](CC[C@@H](C)C1CC[C@H]2[C@@H]3CC=C4C[C@@H](O)CC[C@]4(C)[C@H]3CC[C@]12C)C(C)C (some centres not stated) | -0.0175

Answer for every listed entry: what is its activity change, negative = inhibition? The entries follow.
1. Cn1nnnc1SCC1=C(C(=O)O)N2C(=O)C(NC(=O)C(O)c3ccccc3)C2SC1 (configuration not stated)
2. COc1cc(-c2coc3cc(OC)c(OC)c(OC)c3c2=O)cc(OC)c1OC

[13.2, 2.36]

----------
Task for the reader: assign each of the following compounds its reported activity, negative = inhibition.
# TEST_NAME: qHTS profiling for inhibitors of Plasmodium falciparum proliferation (AID 504749); also: nearly all actives have a fitted effect of over 60% in size;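 as to activity, negative = inhibition: 0% = DMSO vehicle and full inhibition = artemisinin control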
# COND: P. falciparum in erythrocytes, SYBR Green DNA, 72 h; at 12.8 µM (top of the series); parasite line B
Results filed as inconclusive are left out.
Give bare numbers, in %.

- Cc1cccc(C)c1NC(=O)[C@H](C)N: 10.5

Hi, could you look up activity, negative = inhibition for each item in my list?
1. C[C@@H](C(=O)O)c1ccc(C(=O)c2ccccc2)s1
2. C#C[C@]1(O)CC[C@@H]2[C@H]3CCC4=CCCC[C@@H]4[C@@H]3CC[C@@]21C
3. C[N+]12CCC(CC1)[C@@H](OC(=O)C(O)(c1ccccc1)c1ccccc1)C2
4. CCCCC[C@H](O)/C=C\[C@H]1[C@H](C/C=C\CCCC(=O)O)[C@@H](O)C[C@H]1O (tested in a mixture with another compound)
5. CO[C@@H]1C[C@H](O[C@H]2[C@@H](C)[C@H](O[C@@H]3O[C@@H](C)C[C@@H](N(C)C)[C@@H]3OC(C)=O)[C@H](C)C[C@]3(CO3)C(=O)[C@H](C)[C@H](OC(C)=O)[C@H](C)[C@H](C)OC(=O)[C@@H]2C)O[C@H](C)[C@@H]1OC(C)=O
6. CCN(CC)CCOC(=O)[C@@H](Cc1cccc2ccccc12)C[C@@H]1CCCO1
7. COc1ccccc1OC[C@H](O)CO

[16.9, 0.61, 16, -0.0944, -14.9, 10, 4.87]

----------
# System: CP238
# TEST_NAME: qHTS profiling for inhibitors of Plasmodium falciparum proliferation (AID 504749); also: nearly all actives have a fitted effect of over 60% in size
# COND: P. falciparum in erythrocytes, SYBR Green DNA, 72 h; series mostly up to 12.8 µM
# Protocol: NIH National Institute of Allergy and Infectious Diseases [NIAID] NIH Chemical Genomics Center [NCGC] […] Because mature erythrocytes lack DNA, only Plasmodium-derived DNA is detected. NCGC Assay Protocol Summary: The SYBR Green viability assay was adapted from a method described previously (Plouffe et al., 2008). […] The following morning, fluorescence intensity at 485(14) nm excitation and 535(25) nm emission wavelengths was measured on an EnVision (Perkin Elmer) plate reader. […]
Inconclusive results are not listed. Activity calls are given as the source filed them. Calls come from the whole dose curve; as a rule, active = well fitted inhibition curve with a large enough effect; inconclusive = small, poorly fitted or top-dose-only effect; inactive = flat fitted curve, though single readings scatter.
Your response should consist of one outcome taken from yes (active), no (inactive)

Below, 2 compounds whose answers are already recorded.
* NCC1CCC(N)C(O[C@@H]2C(O)[C@H](O[C@H]3OC(CO)C(O)C(N)C3O)[C@@H](N)C[C@H]2N)O1 (some centres undefined) | no
* O=C(O)COCCN1CCN([C@@H](c2ccccc2)c2ccc(Cl)cc2)CC1 | no

Please turn your attention to the following entry.
Tell me the assay call for `NS(=O)(=O)c1cc2c(cc1C(F)(F)F)N[C@H](Cc1ccccc1)NS2(=O)=O` please.
no

----------
# Tested on: PAD
# TEST_NAME: qHTS profiling for inhibitors of Plasmodium falciparum proliferation (AID 504749); also: nearly all actives have a fitted effect of over 60% in size
# COND: P. falciparum in erythrocytes, SYBR Green DNA, 72 h; series mostly up to 12.8 µM
Inconclusive results are not listed. Calls of active or inactive are those of the source. Calls come from the whole dose curve; as a rule, active = well fitted inhibition curve with a large enough effect; inconclusive = small, poorly fitted or top-dose-only effect; inactive = flat fitted curve, though single readings scatter.
Returns: one label drawn from active, inactive

Use these answered entries as a reference point.
• O=C(N/N=C\c1ccc([N+](=O)[O-])o1)c1ccc(O)cc1 = active
• NC(=O)c1ccc[n+]([C@@H]2O[C@H](COP(=O)([O-])OP(=O)(O)OC[C@H]3O[C@@H](n4cnc5c(N)ncnc54)[C@@H](O)[C@@H]3O)[C@@H](O)[C@@H]2O)c1 = inactive
• CCCCC[C@H](O)/C=C\[C@H]1[C@H](C/C=C\CCCC(=O)O)[C@@H](O)C[C@H]1O (tested in a mixture with another compound) = inactive

In the following, a different compound is considered.
Short answer needed: outcome of this test for `CC1(C)O[C@@H]2C[C@H]3[C@H]4C[C@H](F)C5=CC(=O)CC[C@]5(C)[C@@H]4[C@H](O)C[C@]3(C)[C@]2(C(=O)CO)O1` ?
inactive

----------
# Test system: CP260
# TEST_NAME: qHTS profiling for inhibitors of Plasmodium falciparum proliferation (AID 504749); also: nearly all actives have a fitted effect of over 60% in size
# COND: P. falciparum in erythrocytes, SYBR Green DNA, 72 h; series mostly up to 12.8 µM
Records with an inconclusive call do not appear. Active and inactive are the calls of the source. The call rests on the fitted dose curve; in most records, active means well fitted inhibition curve with a large enough effect; inconclusive means small, poorly fitted or top-dose-only effect; inactive means flat fitted curve, though single readings scatter.
Can you answer with just one of these options? label 1 (active), label 0 (inactive)

- CO[C@]1(NC(=O)[C@H](C(=O)O)c2ccc(O)cc2)C(=O)N2C(C(=O)O)=C(CSc3nnnn3C)CO[C@H]21: label 0
- CC(=O)OCC(=O)[C@@]1(O)[C@H](C)C[C@@H]2[C@H]3CCC4=CC(=O)C=C[C@]4(C)[C@]3(F)[C@@H](O)C[C@@]21C: label 0
- COc1ccc2cc1Oc1ccc(cc1)CC1c3c(cc4c(c3Oc3cc5c(cc3OC)CCN(C)C5C2)OCO4)CCN1C (stereo not given): label 1
- CC(=C(CCOP(=O)(O)O)SC(=O)c1ccccc1)N(C=O)Cc1cnc(C)nc1N: label 0

Turning to the following compound.
State the result this test recorded for COc1ccc2cc(C(C)CO)ccc2c1 (stereo not given) .
label 0
